# System: A375
# Assay name: Growth inhibition assay, PA alone, A375
# Type: cell-based
# Condition info: Homo sapiens, A-375, 144 h, PA alone (no DFMO), six days; repeat determinations; read-out: Cell Line IC50 A375
pIC50: −log10 of the molar value.
Quantity measured: pIC50

Use the examples below as a reference point.
Q: Would you kindly share the measured pIC50 for CC(C)(C)CC(=O)NCCCC[C@@H](N)C(=O)NCCCNCCCCNCCCN ?
Result: < 4.00

Q: Would you kindly share the measured pIC50 for CC(C)C(=O)NCCCC[C@@H](N)C(=O)NCCCNCCCCNCCCN ?
Result: < 4.00

Others:
Q: Would you kindly share the measured pIC50 for CC(C)=CCC[C@H](C)CCNCCCC[C@@H](N)C(=O)NCCCNCCCCNCCCN ?
Result: 5.25

Q: Would you kindly share the measured pIC50 for CC(C)[C@@H]1CC[C@@H](C)C[C@H]1OCC(=O)NCCCC[C@@H](N)C(=O)NCCCNCCCCNCCCN ?
Result: 4.67

Q: Would you kindly share the measured pIC50 for CCCCCCCC(=O)NCCCC[C@@H](N)C(=O)NCCCNCCCCNCCCN ?
Result: < 4.52

Q: Would you kindly share the measured pIC50 for CCCCCCNCCCC[C@@H](N)C(=O)NCCCNCCCCNCCCN ?
Result: < 4.00

Q: Would you kindly share the measured pIC50 for NCCCNCCCCNCCCNC(=O)[C@@H](N)CCCCNCC12CC3CC(CC(C3)C1)C2 ?
Result: < 4.00

Q: Would you kindly share the measured pIC50 for CC(C)(C)C(=O)NCCCC[C@@H](N)C(=O)NCCCNCCCCNCCCN ?
Result: < 4.00

Q: Would you kindly share the measured pIC50 for CCCCCCC(=O)NCCCC[C@@H](N)C(=O)NCCCNCCCCNCCCN ?
Result: < 4.00

* * *

# System: A375
# Assay name: Growth inhibition assay (MTS/PMS) with DFMO, A375
# Assay type: cell-based
# Condition info: in the presence of DFMO (1-5 mM), 1 mM AG, 0.5 μM SPD, six days; repeat determinations; read-out: Cell Line EC50 A375
Quantity measured: EC50 (nM)

Q: Would you kindly share the measured EC50 for NCCCNCCCCNCCCNC(=O)[C@@H](N)CCCCNC(=O)c1ccc(N)cc1 ?
Result: 1660

Q: Would you kindly share the measured EC50 for NCCCNCCCCNCCCNC(=O)[C@@H](N)CCCCNS(=O)(=O)c1ccccc1 ?
Result: 1210

Q: Would you kindly share the measured EC50 for NCCCNCCCCNCCCNC(=O)[C@@H](N)CCCCNC(=O)CCCCCCCCC(=O)NCCCC[C@H](N)C(=O)NCCCNCCCCNCCCN ?
Result: 214

[a] CC(C)(C)CCNCCCC[C@H](N)C(=O)NCCCNCCCCNCCCN
[b] Cc1cc(C)c(S(=O)(=O)NCCCC[C@@H](N)C(=O)NCCCNCCCCNCCCN)c(C)c1
Q: Please choose the item with the lower EC50 value from this pair: a and b To answer, give the label that identifies your chosen option.
Result: a

[a] CCCCCCCCCCCCCC(=O)NCCCC[C@H](N)C(=O)NCCCNCCCCNCCCN
[b] CCCCCCCC(=O)NC(CCCCN)C(=O)NCCCNCCCCNCCCN (stereo not drawn)
Q: Please choose the item with the lower EC50 value from this pair: a and b To answer, give the label that identifies your chosen option.
Result: a
(a: 25 nM, b: 5290 nM)
